Listing: Kd of selected binders
# TESTED TARGET: T1, serum purified human Complement Factor D (human, UniProt P00746 26-253)
# T1 construct: Serum purified protein flowed over the captured antibodies; also called CFD; human CFD
# T1 sequence (P00746 26-253): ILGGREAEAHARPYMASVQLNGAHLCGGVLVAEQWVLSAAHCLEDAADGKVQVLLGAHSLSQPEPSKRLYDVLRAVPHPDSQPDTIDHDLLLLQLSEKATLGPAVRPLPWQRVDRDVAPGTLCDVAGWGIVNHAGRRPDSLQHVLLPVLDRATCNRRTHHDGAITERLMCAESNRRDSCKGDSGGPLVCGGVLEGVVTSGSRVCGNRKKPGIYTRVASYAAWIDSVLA
# ASSAY COMMENT: SPR Biacore, antibody on protein A chip, single cycle kinetics, 25 C;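 note: antibodies captured to roughly 70 RU on the protein A surface in HBS-EP+ running buffer, with kinetic constants derived by BIAevaluation fitting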
Response body: numeric value in nM, unit text excluded.

Known results for binders:
| BINDER | REPORTED MEASUREMENT |
| --- | --- |
| 31S48V54V59D / 101V (antibody, V domains shown, KCD119 TAF variant; full antibody captured on protein A) VH: EVQLVESGGGLVQPGGSLRLSCAASGYTFTSYYMNWVRQAPGKGLEWVGDINPVTGDTDYNADFKRRFTFSLDTSKSTAYLQMNSLRAEDTAVYYCTREGPSFAYWGQGTLVTVSS VL: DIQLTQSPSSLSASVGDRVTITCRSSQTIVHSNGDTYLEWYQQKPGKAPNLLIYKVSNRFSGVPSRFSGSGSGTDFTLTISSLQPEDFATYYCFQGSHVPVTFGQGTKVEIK | 0.0169 |
| 28S31S54V59D / 101V (antibody, V domains shown, KCD119 TAF variant; full antibody captured on protein A) VH: EVQLVESGGGLVQPGGSLRLSCAASGYSFTSYYMNWVRQAPGKGLEWIGDINPVTGDTDYNADFKRRFTFSLDTSKSTAYLQMNSLRAEDTAVYYCTREGPSFAYWGQGTLVTVSS VL: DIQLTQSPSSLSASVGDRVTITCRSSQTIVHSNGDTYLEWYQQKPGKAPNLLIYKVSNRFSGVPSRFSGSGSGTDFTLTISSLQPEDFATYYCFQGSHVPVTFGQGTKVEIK | 0.0217 |
| 54V59D / 34D50V101V (antibody, V domains shown, KCD119 TAF variant; full antibody captured on protein A) VH: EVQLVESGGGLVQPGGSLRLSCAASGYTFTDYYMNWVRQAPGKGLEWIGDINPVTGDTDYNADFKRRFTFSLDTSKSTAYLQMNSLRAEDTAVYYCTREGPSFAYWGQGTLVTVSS VL: DIQLTQSPSSLSASVGDRVTITCRSSQTIVHSNDDTYLEWYQQKPGKAPVLLIYKVSNRFSGVPSRFSGSGSGTDFTLTISSLQPEDFATYYCFQGSHVPVTFGQGTKVEIK | 0.0257 |
| 54I59D84T / 32W60W101V (antibody, V domains shown, KCD119 TAF variant; full antibody captured on protein A) VH: EVQLVESGGGLVQPGGSLRLSCAASGYTFTDYYMNWVRQAPGKGLEWIGDINPITGDTDYNADFKRRFTFSLDTSKSTAYLQMTSLRAEDTAVYYCTREGPSFAYWGQGTLVTVSS VL: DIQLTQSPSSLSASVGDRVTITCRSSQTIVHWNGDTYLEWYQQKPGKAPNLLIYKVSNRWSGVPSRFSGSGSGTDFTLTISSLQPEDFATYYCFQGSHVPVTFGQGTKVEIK | 0.0169 |

Problem: Which Kd is reported for this binder? 28K31S54V59D / 101V (antibody, V domains shown, KCD119 TAF variant; full antibody captured on protein A) VH: EVQLVESGGGLVQPGGSLRLSCAASGYKFTSYYMNWVRQAPGKGLEWIGDINPVTGDTDYNADFKRRFTFSLDTSKSTAYLQMNSLRAEDTAVYYCTREGPSFAYWGQGTLVTVSS VL: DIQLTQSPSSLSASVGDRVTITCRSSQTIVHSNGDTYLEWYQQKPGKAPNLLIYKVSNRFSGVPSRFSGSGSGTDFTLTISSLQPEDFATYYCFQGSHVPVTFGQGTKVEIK
Result: 0.0224
